Listing: growth of selected molecules
- Tested on: NCI-H23 lung
- Method Summary: NCI-60 one-dose screen, 48 h (100 = growth as untreated, 0 = no growth, -100 = all killed)
- Condition Summary: 10 µM unless noted
- Description: Growth inhibition of the NCI-H23 human Non-Small Cell Lung tumor cell line is measured as a screen for anti-cancer activity. Cells are grown in 96 well plates and exposed to the test compound for 48 hours. Compounds are tested at a single concentration, which is 10^-5 M for most compounds. The reported endpoint is percent growth (GI% or GIPRCNT), where numbers from 0 - 100% represent growth inhibition, and numbers from -100% - 0 represent cell death. […]
This is part of a sample that, as a whole, favours compounds with a hit. Of some 83,000 tested, about 20% had one in any assay.
Give just the number in %; leave the unit off.

# annotated cases, reported growth shown
COc1cc(-c2cnc3nonc3n2)c(OC)c2c1OCO2 : 95.4
O=[N+]([O-])c1cccc(-c2nc3sccn3c2-c2ccnc(NCCCNS(=O)(=O)c3cccc(F)c3)n2)c1 : -9.68
COc1cc2c(cc1O)CCc1cc(O)cc(OC)c1-2 : 99.3
C[C@]12C[C@@H](c3ccoc3)OC(=O)[C@@H]1CC[C@]1(C)[C@@H]2CC[C@@H](O)[C@]1(C)O : 76.1

-- ask Report growth for COCCCNc1nc(NC(=O)c2ccc(F)cc2C)cc(-c2cccnc2)n1
-- reply 107

----------
- Test system: OVCAR-8 ovarian
- Method Summary: NCI-60 one-dose screen, 48 h (100 = growth as untreated, 0 = no growth, -100 = all killed)
- Condition Summary: 10 µM unless noted
The panel holds about 83,000 compounds, 20% with a hit somewhere; the sample as a whole holds those more often.
Recorded measurements of growth, one per entry
Expressed in %, but write only the number.

COc1ccc2nc3cc(Cl)ccc3c(N3CCN(c4nccc(Nc5ccc(Cl)cc5)n4)CC3)c2c1 : 80.7
O=C(CN1CCN(c2cc3c(cc2F)c(=O)c(C(=O)O)cn3C2CC2)CC1)Nc1nc(-c2ccccc2)cs1 : 52.1
COc1cnc2c(c1)C(=O)c1c-2n(CCCN2CCCC2)c(=O)c2cc([N+](=O)[O-])ccc12 : -37.2
CC/C=C\C[C@H](O)C/C=C1/C(=O)C=C[C@@H]1C/C=C\CCCC(=O)OC(C)C : 5.63
CC/C=C\C[C@H](O)C/C=C1/C(=O)C=C[C@@H]1C/C=C\CCCC(N)=O : 11.6

-- ask Please report growth for the following compound: O=C1CC(c2nc3ccccc3[nH]2)CN1C1CCCCC1 (centres undefined)
-- reply 95.2

-- ask Find the measured growth of N#Cc1ccc(NC(=O)Nc2ccc(Cc3ccc(NC(=O)Nc4ccc(C#N)cc4)cc3)cc2)cc1 and report it.
-- reply 38.7

-- ask Name the recorded growth of the item COc1ccc(Cl)cc1Nc1nc(C(F)(F)F)ccc1C(=O)N/N=C/c1cccnc1 in your answer.
-- reply 42

-- ask State its growth for this compound: Cc1cc(N/N=C/c2nc(-c3ccc(Cl)cc3)oc2C)c2cc(Cl)ccc2n1
-- reply 10.4

----------
Known growth of a selection of compounds
- Test system: MDA-MB-435 melanoma
- Method Summary: NCI-60 one-dose screen, 48 h (100 = growth as untreated, 0 = no growth, -100 = all killed)
- Condition Summary: 10 µM unless noted
This is part of a sample that, as a whole, favours compounds with a hit. Of some 83,000 tested, about 20% had one in any assay. Activity calls are given as the source filed them. How the source made its calls: active means growth percent below 10; inactive means the rest.

Use these answered entries as a reference point.
CCOC(=O)CC(=O)c1c(C)cc(C)cc1C : 98.6% (inactive)
CC1=C(NCCN2CCCC2)C(=O)c2c(OCc3cccc(Cl)c3)cccc2C1=O : 61.8% (inactive)
CCOC(=S)SCc1ccc(Cl)cc1 : 101% (inactive)

-- ask Specify growth for O=C(COCc1c(-c2ccccc2)no[n+]1[O-])Nc1ccc(C(=O)/C=C/c2ccc3c(c2)OCO3)cc1 and stop.
-- reply 95.3% (inactive)

-- ask Given O=C1/C(=C/c2ccc(Cl)cc2Cl)CN(S(=O)(=O)c2ccccc2)C/C1=C\c1ccc(Cl)cc1Cl , respond with its growth.
-- reply 3.98% (active)

-- ask Annotate the compound CCCCCN(CCCCC)CCC[C@@H](C)[C@H]1CC[C@H]2[C@@H]3[C@H](OCCCN)C[C@@H]4C[C@H](OCCCN)CC[C@]4(C)[C@H]3C[C@H](OCCCN)[C@]12C with its measured growth.
-- reply -13.6% (active)

-- ask Give me measured growth, please, for this compound: CC1CN(Cc2ccco2)C(=S)N(c2ccccc2)C1=O (stereo not given)
-- reply 100% (inactive)

-- ask Look up and state reported growth for CCOC(=O)/C=C/C(=O)[C@H](CC(C)C)NC(=O)[C@H](Cc1ccccc1)NC(=O)OCc1ccccc1
-- reply 75.8% (inactive)

-- ask Please list growth recorded for the compound COC1C/C(=N\O)C2OC(c3ccccc3)OCC2O1 (stereo not given)
-- reply 102% (inactive)

-- ask Report measured growth; entry is COc1cc(OC)c(/C=C/C(=O)c2c(OC)cc(OC)cc2OC)c(OC)c1
-- reply -34.8% (active)

----------
- Test system: MCF7 breast
- Method Summary: NCI-60 one-dose screen, 48 h (100 = growth as untreated, 0 = no growth, -100 = all killed)
- Condition Summary: 10 µM unless noted
About 83,000 compounds went through this panel and 20% of them were active in at least one assay; those are over-represented in the sample as a whole.
Would you mind labelling by growth? At or over 60% is criterion met, under is criterion not met.

Worked examples follow.
COc1ccc2nc3cc(Cl)ccc3c(N3CCN(c4ccnc(N5CCN(C)CC5)n4)CC3)c2c1 : criterion not met
Clc1cccc(Nc2nc(Nc3cnc4ccccc4c3)c3[nH]cnc3n2)c1 : criterion met
COc1ccc(C(=O)COc2ccc(/C=C3\Oc4ccc(Cl)cc4C3=O)cc2)cc1 : criterion not met
O=C1c2ccccc2-c2nccc3cc(Cl)nc1c23 : criterion not met
C/C(Cc1ccc(Cl)cc1)=C(\c1ccc(OCCN2CCCCCC2)cc1)c1ccc(OC(=O)C2CCCCC2)cc1 : criterion not met

-- ask In plain terms: is recorded growth at least 60% for O=C1c2cc3c(cc2-c2c1c1cc(F)c(F)cc1c(=O)n2C[C@H](O)CO)OCO3 ?
-- reply criterion not met

-- ask Dear colleague, could you confirm whether COc1ccc(-n2c(C)nc3c(c(C)nn3-c3ccccc3)c2=O)cc1 has growth at or above 60%?
-- reply criterion not met

-- ask Evaluate CN1CCN(Cc2ccc(NC(=O)c3[nH]ncc3Nc3ncnc4c3CCC4)cc2)CC1 : growth at minimum 60%?
-- reply criterion not met

-- ask Check the entry O=C(O)c1ccccc1Nc1cccc(S(F)(F)(F)(F)F)c1 : does growth equal or exceed 60%?
-- reply criterion met

-- ask Item Cn1c2ccccc2c2c3c(c4c5ccccc5[nH]c4c21)C(=O)N(N)C3=O with growth of 60% or above?
-- reply criterion not met

-- ask Please tell me: is the compound Nc1nc2c(c3ncccc13)C(c1ccc(Cl)c(Cl)c1)Cc1ncccc1-2 (stereo unspecified) at or over 60% in terms of growth?
-- reply criterion not met

-- ask Check if growth >= 60% (inclusive). Item: Cc1cc(=O)oc2cc(Oc3nc(-c4ccc(Cl)cc4)cn4c(-c5ccc(Cl)cc5)cnc34)ccc12
-- reply criterion met

----------
- Tested on: MOLT-4 leukemia
- Method Summary: NCI-60 one-dose screen, 48 h
- Condition Summary: 10 µM unless noted
The panel holds about 83,000 compounds, 20% with a hit somewhere; the sample as a whole holds those more often. Calls of active or inactive are those of the source. The calls were made as follows: active = growth percent below 10; inactive = the rest.
Mark one answer only. Choices: 1 = active, 0 = inactive

Examples from the recorded data:
COc1cc(C#N)cc(OC)c1OCCN(CCOc1c(OC)cc(C#N)cc1OC)S(=O)(=O)c1ccc(C)cc1 : 0
CCOC(=S)SCc1ccc(Cl)cc1 : 0
CCCCCC(=O)N(CCCC)CCCC : 0
Cc1cc2c(cc1C)NC1=C(N2)OC(c2c3ccccc3cc3ccccc23)C1=O (centres undefined) : 0
Nc1nc(-c2ccc(F)cc2)cc(-c2cnn(-c3ccccc3)n2)n1 : 0

-- ask Hi, do you know how C[C@@]1(N2C(=O)OC[C@@H]2c2ccccc2)C(=O)N([C@H](CC(=O)N2CCC(N3CCCCC3)CC2)C(=O)NCc2cccc(C(F)(F)F)c2)[C@@H]1/C=C/c1ccccc1 came out in this test?
-- reply 0

-- ask Which outcome did this test record for the compound c1ccc(-c2nc(N3CCOCC3)c3c4c(sc3n2)CCCCC4)nc1 ?
-- reply 0

-- ask Short answer needed: outcome of this test for c1ccc2sc(SCCCn3ccnc3)nc2c1 ?
-- reply 0

-- ask Dear all, I need the recorded test outcome for CN(C)c1ccc(/C=C\C2=[N+](C)c3ccccc3C2(C)C)cc1 , thank you.
-- reply 0

-- ask Status in this test for CC/C(=C(\c1ccc(O)cc1)c1ccc(OCCN(C)CCN(C)C(=O)CCCCC(=O)c2c(C)[nH]c(/C=C3\N=C(c4ccc[nH]4)C=C3OC)c2C)cc1)c1ccccc1 ?
-- reply 0

-- ask Which outcome was entered for the compound CC(C)Oc1nc2c(c(=O)n(C)c(=O)n2C)n1C in this test?
-- reply 0

-- ask Could you check what this test reported for N#Cc1c2c(nc3n[nH]c(N)c13)CCCC2 ?
-- reply 0

-- ask What call does the record list for Cn1c2ccccc2c2c3[nH]c(=O)[nH]c(=O)c3c3c4ccccc4n(C)c3c21 ?
-- reply 0

-- ask What classification did C=C1C(=O)O[C@H]2[C@H]1CC/C(Cn1cc(Cn3ccc4ccccc43)nn1)=C\CC[C@@]1(C)O[C@@H]21 end up with in this test?
-- reply 1

-- ask Please indicate how the test categorized OCC1C2C=CC(C2)C1CO (centres undefined) .
-- reply 0

-- ask Each compound tested received a call. Report the one for CCCCCCCCCC(=O)Oc1ccc(/C(=C(/C)Cc2cccc(OC)c2)c2ccc(OCCN(C)C)cc2)cc1 .
-- reply 0

-- ask What call does the record list for Nc1c(C(=O)Nc2ccccc2)sc2nc3c(cc12)CN(CCc1ccccc1)CC3 ?
-- reply 0

-- ask Lab log entry: CCN(CC)C12CCCCC1(C)C(C#N)(C#N)C(C#N)=C(N)O2 (centres undefined) — outcome as called in the assay?
-- reply 0

-- ask Please indicate how the test categorized COc1cnc2c(c1)C(=O)c1c-2n(CCCN2CCN(C)CC2)c(=O)c2cc([N+](=O)[O-])ccc12 .
-- reply 1

-- ask Recorded call for Nc1cccc(-c2nc3sccn3c2-c2ccnc(NCCCNS(=O)(=O)c3ccc(C(F)(F)F)cc3)n2)c1 ?
-- reply 1

-- ask Recorded call for Cc1csc2ccc(Cl)cc12 ?
-- reply 0

-- ask Each compound tested received a call. Report the one for CCN(CC)CCCNc1cccc2c(SCc3ccccc3)ccnc12 .
-- reply 1

-- ask For this compound, state the assay outcome: O=C1c2c[n+](Cc3ccccc3)ccc2-c2nc3ccccc3c3ccnc1c23
-- reply 1

-- ask Recorded test outcome, item CC[C@H](Nc1ncnc(N)c1C(N)=O)c1nc2cccc(NCc3ccc(C(=O)NO)cc3)c2c(=O)n1-c1ccccc1
-- reply 0

-- ask Tell me the recorded outcome of this test for CC/C(=C(\c1ccccc1)c1ccc(OCCNC)cc1)c1ccccc1 .
-- reply 0

-- ask Which outcome did this test record for the compound CC1(C)OCC2OC3(C(=O)O)OC(C)(C)OC3C2O1 (centres undefined) ?
-- reply 0

-- ask Fill in: this test's call for O=c1[nH]c(-c2ccccn2)nc2sc3c(c12)CCCCC3 is ___
-- reply 0

-- ask Dear colleague, could you share the recorded outcome for CCN(CC)Cc1cc(Nc2c3ccccc3nc3cc(Cl)ccc23)ccc1O when you have a moment?
-- reply 1
